Data provenance is patent US20090136495A1.

Molecular target: T1, human hepcidin-25 (human, not fully specified)
T1 construct: also called human mature hepcidin
T1 peptide: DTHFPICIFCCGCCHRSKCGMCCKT
Assay: SPR (BIAcore), Fab captured on goat anti-human kappa, human hepcidin-25 injected, 25 C
Assay endpoint: Kd

Provide Kd value for the following binder: Fab Hu22 (Fab, V domains shown, Fab with human kappa, from E. coli periplasm; frameworks O2 and VH1-69) VH: QVQLVQSGAEVKKPGSSVKVSCKASGYTFTIYPISWVRQAPGQGLEWMGNFHPYLGDTNYNEKFKGRVTITADKSTSTAYMELSSLRSEDTAVYYCARGGTGSFDYWGQGTTVTVSS VL: DIQMTQSPSSLSASVGDRVTITCSASSRVSSTYLFWYQQKPGKAPKLLIYRTSTLASGVPSRFSGSGSGTDFTLTISSLQPEDFATYYCQQWSGYPFTFGGGTKVEIK
0.647 nM
